# Lookup of reported EC50 keyed by entry
MEASURED_ON: Kappa-type opioid receptor (Homo sapiens, UniProt P41145)
Sequence (P41145 whole entry): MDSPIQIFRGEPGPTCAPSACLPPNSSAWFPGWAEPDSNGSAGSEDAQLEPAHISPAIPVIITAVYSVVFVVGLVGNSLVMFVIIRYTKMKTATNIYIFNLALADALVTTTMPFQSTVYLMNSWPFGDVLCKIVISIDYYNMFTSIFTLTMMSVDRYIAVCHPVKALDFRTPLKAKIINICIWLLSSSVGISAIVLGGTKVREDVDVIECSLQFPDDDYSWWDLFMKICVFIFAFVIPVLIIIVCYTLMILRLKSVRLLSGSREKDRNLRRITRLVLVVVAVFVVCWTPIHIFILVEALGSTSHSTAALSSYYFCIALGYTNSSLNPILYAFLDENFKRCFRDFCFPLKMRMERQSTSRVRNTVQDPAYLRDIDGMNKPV
PROTOCOL_DESCRIPTION: Agonist activity at human KOR expressed in CHO cells after 1 hr by [35S]GTPgammaS binding assay
READOUT_LABEL: EC50 (nM)

INSERT INTO measurements (structure_as_smiles, number) VALUES
  ('N[C@@H](Cc1c(Cl)cc(O)cc1Cl)C(=O)N[C@@H]1CCNc2ccc(Cc3ccccc3)cc21', 1200),
  ('Cc1cc(C[C@H](N)C(=O)N[C@@H]2CCNc3ccc(Cc4ccccc4)cc32)c(C)cc1O', 370),
  ('Cc1cccc(C)c1C[C@H](N)C(=O)N[C@@H]1CCNc2ccc(Cc3ccccc3)cc21', 4800),
  ('Cc1cc(O)ccc1C[C@H](N)C(=O)N[C@@H]1CCNc2ccc(Cc3ccccc3)cc21', 2400);

---

MEASURED_ON: Kappa-type opioid receptor (Homo sapiens, UniProt P41145)
PROTOCOL_DESCRIPTION: Agonist activity at human KOR expressed in CHO cells at 10 uM after 1 hr by [35S]GTPgammaS binding assay relative to U69,593
Type: functional, cell-based
READOUT_LABEL: max activation (%)

INSERT INTO assay_data (structure_as_smiles, readout_label, number) VALUES
  ('Cc1cc(O)ccc1C[C@H](N)C(=O)N[C@@H]1CCNc2ccc(Cc3ccccc3)cc21', 'max activation', 41),
  ('N[C@@H](Cc1c(Cl)cc(O)cc1Cl)C(=O)N[C@@H]1CCNc2ccc(Cc3ccccc3)cc21', 'max activation', 32),
  ('Cc1cccc(C)c1C[C@H](N)C(=O)N[C@@H]1CCNc2ccc(Cc3ccccc3)cc21', 'max activation', 38),
  ('Cc1cc(C[C@H](N)C(=O)N[C@@H]2CCNc3ccc(Cc4ccccc4)cc32)c(C)cc1O', 'max activation', 22);

---

MEASURED_ON: Delta-type opioid receptor (Rattus norvegicus)
Sequence (P33533 whole entry): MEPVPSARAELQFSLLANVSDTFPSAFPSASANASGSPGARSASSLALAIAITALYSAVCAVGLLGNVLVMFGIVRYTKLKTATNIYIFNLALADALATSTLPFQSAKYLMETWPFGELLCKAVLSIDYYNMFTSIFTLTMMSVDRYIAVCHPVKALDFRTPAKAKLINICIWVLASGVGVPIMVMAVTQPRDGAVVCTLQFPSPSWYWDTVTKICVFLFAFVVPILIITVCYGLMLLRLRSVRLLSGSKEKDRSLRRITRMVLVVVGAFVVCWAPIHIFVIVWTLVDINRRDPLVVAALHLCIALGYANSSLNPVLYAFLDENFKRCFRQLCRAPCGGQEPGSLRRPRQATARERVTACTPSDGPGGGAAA
PROTOCOL_DESCRIPTION: Agonist activity at rat DOR expressed in rat C6 cells after 1 hr by [35S]GTPgammaS binding assay
Format: functional, cell-based
DETAILS: read-out: EC50
pEC50: −log10 of the molar value.
READOUT_LABEL: pEC50

INSERT INTO assay_data (structure_as_smiles, readout_label, number) VALUES
  ('Cc1cc(C[C@H](N)C(=O)N[C@@H]2CCNc3ccc(Cc4ccccc4)cc32)c(C)cc1O', 'pEC50', 5.23);

---

MEASURED_ON: Kappa-type opioid receptor (Homo sapiens, UniProt P41145)
pKi: −log10 of the molar value.
Decide using pKi: a value greater than or equal to 6 is y, a smaller one is n.

INSERT INTO assay_data (structure_as_smiles, class_label) VALUES
  ('N[C@@H](Cc1ccc2cccc(O)c2c1)C(=O)N[C@@H]1CCNc2ccc(Cc3ccccc3)cc21', 'n'),
  ('N[C@@H](Cc1c(Cl)cc(O)cc1Cl)C(=O)N[C@@H]1CCNc2ccc(Cc3ccccc3)cc21', 'y'),
  ('Cc1cc(O)ccc1C[C@H](N)C(=O)N[C@@H]1CCNc2ccc(Cc3ccccc3)cc21', 'y'),
  ('Cc1cccc(C)c1C[C@H](N)C(=O)N[C@@H]1CCNc2ccc(Cc3ccccc3)cc21', 'y');
